# Ki per entry
- test.system: human Adenosine A2b receptor (Homo sapiens (Human))
- Sequence (P29275 whole entry): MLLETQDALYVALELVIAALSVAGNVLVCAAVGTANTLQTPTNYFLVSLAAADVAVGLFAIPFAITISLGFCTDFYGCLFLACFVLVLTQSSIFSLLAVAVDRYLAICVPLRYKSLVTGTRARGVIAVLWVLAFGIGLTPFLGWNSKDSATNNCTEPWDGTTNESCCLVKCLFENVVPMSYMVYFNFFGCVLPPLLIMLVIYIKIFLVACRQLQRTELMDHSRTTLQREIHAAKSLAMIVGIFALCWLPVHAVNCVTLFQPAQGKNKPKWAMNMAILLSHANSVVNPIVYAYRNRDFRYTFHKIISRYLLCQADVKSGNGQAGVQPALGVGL
- assay.overview: Adenosine receptor TR-FRET binding assay (A2b)
- test.context: TR-FRET, inhibition of binding of 30 nM CA200645, CHO cell membranes

compound	Ki
Cc1cc(-c2sc(NC(=O)N3CCC(S(N)(=O)=O)C3)nc2-c2cccc(C#N)c2)cc(C)n1 (stereo not drawn)	0.9 nM
Cc1cc(-c2sc(NC(=O)N3CCC(C)(C#N)C3)nc2-c2cccc(C#N)c2)cc(C)n1 (racemic)	0.8 nM
Cc1cc(-c2sc(NC(=O)N3CCN[C@H](C)C3)nc2-c2cccc(C#N)c2)cc(C)n1	7.6 nM
Cc1cc(-c2sc(NC(=O)N3CCS(=O)(=O)CC3)nc2-c2cccc(C#N)c2)cc(C)n1	0.8 nM
Cc1cc(-c2sc(NC(=O)N3CC4CC(C3)N4)nc2-c2cccc(C#N)c2)cc(C)n1	13.7 nM

Switching to the query record.
Problem: Using known records, supply Ki for Cc1cc(-c2sc(NC(=O)N3C4CCC3CNC4)nc2-c2cccc(C#N)c2)cc(C)n1
Result: 13.5 nM

====

- Tested on: human PBMCs
- assay.overview: CD3/CD28 stimulated IL-2 release NECA reversal assay in human PBMCs
- Type: cell-based
- test.context: PBMC, 1 uM NECA, 24 hours, IL-2 in culture supernatant
- Procedure: Biological Example—CD3/CD28 Stimulated IL-2 Release NECA Reversal Assay in Human PBMCs Blood is drawn from healthy volunteers using sodium citrate as the anticoagulant (0.3% final concentration). After centrifugation of the blood over Histopaque-1077, PBMCs are collected from the Histopaque/plasma interface and washed twice in PBS (300 g for 10 mins at room temp). […]
quantity: pIC50
Please keep in mind that pIC50 is minus log10 of the molar concentration; only the number is needed.

Please review the entries below; each comes with its answer.
compound	pIC50
Cc1cc(-c2sc(NC(=O)N3CCC4(CC3)CNC(=O)N4C)nc2-c2cccc(C#N)c2)cc(C)n1 [Example 6.51]	8.21
Cc1cc(-c2sc(NC(=O)N3CC(C#N)(CO)C3)nc2-c2cccc(C#N)c2)cc(C)n1 [Example 6.64]	8.96
Cc1cc(-c2sc(NC(=O)N3CCC4(CCOC(=O)N4)CC3)nc2-c2cccc(C#N)c2)cc(C)n1 [Example 6.50]	8.44
CC(=O)N1CCN(C(=O)Nc2nc(-c3cccc(C#N)c3)c(-c3cc(C)nc(C)c3)s2)CC1 [Example 4.17]	8.07
Cc1cc(-c2sc(NC(=O)N3CCC4(CC3)CC(=O)N(C)C4)nc2-c2cccc(C#N)c2)cc(C)n1 [Example 6.38]	8.22

Problem: Using known records, supply pIC50 for Cc1cc(-c2sc(NC(=O)N3CC[C@@H](C#N)C3)nc2-c2cccc(C#N)c2)cc(C)n1 [Example 4.10]
Result: 8.54

Problem: Using known records, supply pIC50 for Cc1cc(-c2sc(NC(=O)N3CCNCC3)nc2-c2cccc(C#N)c2)cc(C)n1 [Example 7]
Result: 7.80

Problem: Using known records, supply pIC50 for Cc1cc(-c2sc(NC(=O)N3CC4(COC4)C3)nc2-c2cccc(C#N)c2)cc(C2CC2)n1 [Example 16.7]
Result: 9.05

Problem: Using known records, supply pIC50 for Cc1cc(-c2sc(NC(=O)N3CC4(CNC(=O)N4)C3)nc2-c2cccc(C#N)c2)cc(C)n1 [Example 6.57]
Result: 8.59

Problem: Using known records, supply pIC50 for Cc1cc(-c2sc(NC(=O)N3CC[C@](C)(C#N)C3)nc2-c2cccc(C#N)c2)cc(C)n1 [Example 27b]
Result: 9.00

meta.source: patent US20230293517A1
